Entries with their measured Kd, system Amyloid-beta precursor protein (Homo sapiens, UniProt P05067):
measured.quantity: Kd (nM)

[
  {
    "compound": "CN1c2ccccc2Sc2cc(/C=C3/SC(=S)N(CC(=O)OCC4COC(C)(C)O4)C3=O)ccc21 (configuration not stated)",
    "uom": "nM",
    "recorded.measurement": 24.5
  },
  {
    "compound": "CN1c2ccccc2Sc2cc(/C=C3/SC(=S)N(CC(=O)OCC(O)CO)C3=O)ccc21 (configuration not stated)",
    "uom": "nM",
    "recorded.measurement": 34.9
  }
]

Reference for the values: ChEMBL document CHEMBL4359875
